Measured values drawn from PubChem BioAssay AID1159580 for this set.

- experimental.protocol: chemical genetic growth profiling, strain panel (AID 1159580);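 note: tested at 20 µM; growth read once vehicle control cultures reached saturation at 30 °C; 1 = growth at the plate median or of vehicle wells; lower values mean less growth of the strain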
- condition.notes: S. cerevisiae deletion strains, growth OD, locus YDR335W, strain msn5
Among all 5,500 compounds or so, about 2,000 (36%) were called active. Not shown: some 18% with an inconclusive outcome. Cut-off read from the data, not from the text of the source: active = normalized growth mostly below about 0.91 (no sharp cut-off); inconclusive = no clear call, values can overlap the other calls; inactive = mostly above about 0.92. The list shows a part of the results.
Classes used: 1.0 for active, 0.0 for inactive

molecule | discrete.label
CC1(C)O[C@@H]2CC3C4C[C@H](F)C5=CC(=O)C=CC5(C)C4C(O)CC3(C)[C@]2(C(=O)CO)O1 (stereo partly drawn) | 0.0
CC(=O)[C@H]1CCC2C3CC=C4C[C@@H](O)CC[C@]4(C)C3CC[C@@]21C (stereo partly drawn) | 0.0
O=C(O)c1nc2cc(Cl)c(Cl)cc2[nH]c1=O | 0.0
COc1ccc(C(=O)/C=C/c2ccccc2)cc1 | 1.0
C[C@@H]1CC[C@@]2(OC1)OC1C(O)C3C4CC[C@H]5C[C@H](O[C@@H]6O[C@H](CO)[C@H](O[C@@H]7O[C@H](CO)[C@@H](O)[C@H](O[C@@H]8OC[C@@H](O)[C@H](O)[C@H]8O)[C@H]7O[C@@H]7O[C@H](CO)[C@H](O)[C@H](O[C@@H]8O[C@H](CO)[C@@H](O)[C@H](O)[C@H]8O)[C@H]7O)[C@H](O)[C@H]6O)[C@H](O)C[C@]5(C)C4CC[C@]3(C)C1[C@@H]2C (stereo partly drawn) | 1.0
CC[C@]12C=CCN3CC[C@@]4(c5ccc(OC)cc5N(C)C4[C@@](O)(C(=O)OC)[C@@H]1OC(C)=O)[C@@H]32 (stereo partly drawn) | 0.0
CCCCOc1cc(CC2CNC(=O)N2)ccc1OC (stereo not drawn) | 0.0
NC(=O)CC[C@@H](N)C(=O)O | 0.0
CC(=O)Oc1c(-c2ccccc2)oc2c(CC=C(C)C)c3c(c(OC(C)=O)c2c1=O)C=CC(C)(C)O3 | 0.0
CN(C)C(=O)Oc1cc(OC(=O)N(C)C)cc(C(O)CNC(C)(C)C)c1 (stereo not drawn) | 0.0
NCCc1ccc(O)c(O)c1 | 0.0
CCCCC1C(=O)N(c2ccccc2)N(c2ccccc2)C1=O | 0.0
CCC(CCC(C)[C@H]1CCC2C3CC=C4C[C@@H](O)CC[C@]4(C)C3CC[C@@]21C)C(C)C (stereo partly drawn) | 0.0
CC(=O)O[C@@H]1CC2C(C)(C)CCC(=O)[C@]2(C)C2CC[C@@]3(C)[C@H](c4ccoc4)OC(=O)C4OC43[C@@]21C (stereo partly drawn) | 0.0
O=C(/C=C/c1ccccc1)c1ccc(O)cc1 | 1.0
Cn1c(=O)c2[nH]c(C3CCCC3)nc2n(C)c1=O | 0.0
CCCCCCCCCc1ccc(O)cc1 | 1.0
FC(F)(F)C(Cl)Br (stereo not drawn) | 0.0
CC(C)(C)C(=O)C(Oc1ccc(Cl)cc1)n1cncn1 (stereo not drawn) | 1.0
CC(=O)O[C@H]1C[C@@H](O)C(C)(C)C2C[C@@H](OC(C)=O)[C@]3(C)C(CC[C@@]4(C)[C@H](c5ccoc5)OC(=O)C5OC543)[C@]21C (stereo partly drawn) | 0.0
CC(=O)O[C@H]1C[C@H](O[C@H]2[C@@H](O)C[C@H](O[C@H]3[C@@H](O)C[C@H](O[C@H]4CC[C@@]5(C)C(CCC6C5C[C@@H](O)[C@]5(C)[C@@H](C7=CC(=O)OC7)CC[C@]65O)C4)O[C@@H]3C)O[C@@H]2C)O[C@H](C)[C@H]1O[C@@H]1O[C@H](CO)[C@@H](O)[C@H](O)[C@H]1O (stereo partly drawn) | 0.0
O=c1[nH]c2cc(Cl)c(Cl)cc2[nH]c1=O | 0.0
CC1=NCCc2c1[nH]c1cc(O)ccc21 | 0.0
COc1ccc(-c2cc(=O)c3cc(OC)ccc3o2)cc1 | 0.0
CC1(C)O[C@@H]2CC3C4C[C@H](F)C5=CC(=O)C=C[C@]5(C)[C@@]4(F)[C@@H](O)C[C@]3(C)[C@]2(C(=O)CO)O1 (stereo partly drawn) | 0.0
CCn1cc(C(=O)O)c(=O)c2cc(F)c(N3CCNCC3)cc21 | 0.0
CC(=O)O[C@H]1C[C@@]2(C)[C@H](c3ccoc3)OC(=O)[C@H]3O[C@]32[C@@]2(C)C1[C@]1(C)C(C[C@H]2OC(C)=O)C(C)(C)[C@H](OC(C)=O)C[C@@H]1OC(C)=O (stereo partly drawn) | 0.0
CCCCCCc1ccc(O)cc1O | 0.0
